study.system: Kappa-type opioid receptor (Homo sapiens)
Sequence (P41145 whole entry): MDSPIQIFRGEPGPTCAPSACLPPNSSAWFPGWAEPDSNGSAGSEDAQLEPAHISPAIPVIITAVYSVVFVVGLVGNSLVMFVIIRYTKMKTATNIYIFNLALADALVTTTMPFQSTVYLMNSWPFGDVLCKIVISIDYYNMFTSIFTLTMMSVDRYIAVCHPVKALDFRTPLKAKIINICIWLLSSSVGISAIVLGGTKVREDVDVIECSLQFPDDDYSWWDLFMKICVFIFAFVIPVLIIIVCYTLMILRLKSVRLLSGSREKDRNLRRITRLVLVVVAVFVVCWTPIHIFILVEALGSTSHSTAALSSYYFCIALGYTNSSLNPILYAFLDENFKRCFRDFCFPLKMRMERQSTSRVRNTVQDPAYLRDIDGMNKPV
Type: functional
value.kind: pEC50
Answers are plain numbers, as −log10 of the molar value.

Requested field: pEC50. Item: Brc1ccc(CSc2nnc(-c3ccccn3)n2Cc2ccco2)cc1
5.25

###

study.system: Cytochrome P450 2D6 (Homo sapiens);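 note: CYP2D6 member of a cytochrome P450 panel assay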
Sequence (P10635 whole entry): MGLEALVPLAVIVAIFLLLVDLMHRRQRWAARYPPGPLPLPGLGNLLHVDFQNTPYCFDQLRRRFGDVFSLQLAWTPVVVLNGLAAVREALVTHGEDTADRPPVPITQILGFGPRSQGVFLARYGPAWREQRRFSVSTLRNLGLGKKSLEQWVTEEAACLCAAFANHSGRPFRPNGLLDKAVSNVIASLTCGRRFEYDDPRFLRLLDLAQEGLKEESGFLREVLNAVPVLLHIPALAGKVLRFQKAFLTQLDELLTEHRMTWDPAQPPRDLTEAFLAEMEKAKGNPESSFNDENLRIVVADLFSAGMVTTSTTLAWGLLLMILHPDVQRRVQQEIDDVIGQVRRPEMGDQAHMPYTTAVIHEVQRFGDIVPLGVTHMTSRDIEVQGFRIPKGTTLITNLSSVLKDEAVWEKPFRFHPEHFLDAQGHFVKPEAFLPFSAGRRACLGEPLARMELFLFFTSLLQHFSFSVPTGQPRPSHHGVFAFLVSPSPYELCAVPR
value.kind: AC50

Worked examples, 5 compounds total:
CC1CCN(C(=O)c2ccc(COc3ccccc3Cl)o2)CC1; 28.2 µM (inconclusive)
COc1ccc(-n2c(=O)c(C)nc3cnc(Oc4cccc(Cl)c4)nc32)cc1; 25.1 µM (inconclusive)
CN(C)C(=O)c1ccc(-c2nc(N(C)Cc3ccco3)c3ccccc3n2)cc1; 39.8 µM (inconclusive)
O=C(c1csnn1)N1CCC[C@@]2(CCN(c3ccccn3)C2)C1; 12.6 µM (inconclusive)
Cc1nc2cnc(N(C)C)nc2n(Cc2cccs2)c1=O; 12.6 µM (inconclusive)

// input: 7 compounds below; output: AC50 for each
1. COc1ccc(CC(=O)NCCN2CCCC2)cc1
2. COc1cccc(CSc2nnc(C(F)(F)F)n2Cc2ccc(F)cc2)c1
3. CCc1nnc(NC(=O)CCC(=O)NCc2ccccc2OC)s1
4. NC(=O)c1cccc(N)c1 [3-AMINOBENZAMIDE]
5. CN(Cc1ccco1)c1ccnc(-c2ccccc2C(F)(F)F)n1
6. C[C@H](N)c1cccc(Cl)c1Cl
7. COc1cccc(Cn2c(=O)c(C)nc3cnc(OCc4ccccc4)nc32)c1

["28.2 µM (inconclusive)", "10 µM (inconclusive)", "17.8 µM (inconclusive)", "20 µM (inconclusive)", "25.1 µM (inconclusive)", "31.6 µM (inconclusive)", "20 µM (inconclusive)"]

###

assay.summary: alpha-synuclein stem-loop luciferase translation blockers – H4 neuroglioma cells, luminescence, confirmation (AID 1988)
Type: functional, cell-based
Active and inactive are the calls of the source.
Consider the following compounds; for each one, report its EC50.

Answered cases to consult:
O=C(Nc1ccccc1)Nc1cc(OCC(F)(F)F)cc(OCC(F)(F)F)c1; 6.09 µM (active)
COc1ccc(-c2nnc(CSc3nnc(-c4ccncc4)n3C3CCCCC3)o2)cc1OC; 39.4 µM (active)
O=C(CSc1nnc(-c2ccccc2)o1)Nc1ccccc1F; 1.21 µM (active)
O=C(O)COc1ccccc1/C=N/NC(=O)c1cc2ccccc2cc1O; 18.7 µM (active)
CC(C)n1c2ccccc2c2cc([N+](=O)[O-])ccc21; 34.3 µM (active)

Moving on to another compound below.
Look up EC50: CC(C)CN(C(=O)COC(=O)c1c(Cl)ccc(Cl)c1Cl)C1CCS(=O)(=O)C1 (stereo unspecified)
> 120 µM (not active)

###

study.system: Histone-lysine N-methyltransferase NSD2 (Homo sapiens)
Sequence (O96028 whole entry): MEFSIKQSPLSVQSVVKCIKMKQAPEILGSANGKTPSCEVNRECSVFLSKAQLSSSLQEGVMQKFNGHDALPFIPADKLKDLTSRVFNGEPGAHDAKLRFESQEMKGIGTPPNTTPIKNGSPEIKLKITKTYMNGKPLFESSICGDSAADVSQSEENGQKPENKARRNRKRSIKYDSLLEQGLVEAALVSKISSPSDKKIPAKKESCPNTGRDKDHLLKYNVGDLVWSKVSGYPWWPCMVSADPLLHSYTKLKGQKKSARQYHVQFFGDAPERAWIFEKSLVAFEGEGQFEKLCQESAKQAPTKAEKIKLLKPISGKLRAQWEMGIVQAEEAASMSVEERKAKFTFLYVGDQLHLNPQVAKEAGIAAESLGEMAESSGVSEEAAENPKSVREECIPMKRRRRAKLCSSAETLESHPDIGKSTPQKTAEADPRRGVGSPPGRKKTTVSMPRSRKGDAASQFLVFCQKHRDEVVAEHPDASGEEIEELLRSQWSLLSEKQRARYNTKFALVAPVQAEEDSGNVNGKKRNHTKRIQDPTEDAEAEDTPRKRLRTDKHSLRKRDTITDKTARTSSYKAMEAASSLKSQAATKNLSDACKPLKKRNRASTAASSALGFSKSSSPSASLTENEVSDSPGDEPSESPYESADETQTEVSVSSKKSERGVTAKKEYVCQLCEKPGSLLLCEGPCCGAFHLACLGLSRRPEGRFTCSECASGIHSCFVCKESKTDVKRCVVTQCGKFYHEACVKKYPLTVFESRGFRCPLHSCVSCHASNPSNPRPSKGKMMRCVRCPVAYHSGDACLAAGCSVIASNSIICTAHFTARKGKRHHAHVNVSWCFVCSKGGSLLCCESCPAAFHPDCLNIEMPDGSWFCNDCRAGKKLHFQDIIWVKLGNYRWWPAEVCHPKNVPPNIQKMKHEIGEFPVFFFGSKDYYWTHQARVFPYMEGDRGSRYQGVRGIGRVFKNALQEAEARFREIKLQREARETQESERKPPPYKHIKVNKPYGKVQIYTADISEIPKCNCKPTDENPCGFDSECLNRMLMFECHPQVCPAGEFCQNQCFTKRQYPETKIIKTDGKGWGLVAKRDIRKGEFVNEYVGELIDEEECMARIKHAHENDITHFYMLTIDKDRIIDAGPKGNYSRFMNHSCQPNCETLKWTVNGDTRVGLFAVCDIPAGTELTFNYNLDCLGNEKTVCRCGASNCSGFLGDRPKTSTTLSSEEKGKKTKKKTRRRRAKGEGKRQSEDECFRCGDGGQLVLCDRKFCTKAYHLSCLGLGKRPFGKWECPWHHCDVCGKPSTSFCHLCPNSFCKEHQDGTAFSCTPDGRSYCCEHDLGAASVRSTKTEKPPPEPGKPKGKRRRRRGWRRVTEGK
Type: biochemical
Calls of active or inactive are those of the source.
I would appreciate it if you answered using one of these outcomes: label 1 = active, label 0 = inactive

A selection of reference data follows.
O=C1C(Cl)=C(N2CCC(C(=O)O)CC2)C(=O)c2ccccc21; label 1
CN(C(=O)CSc1nc(-c2ccc(C(C)(C)C)cc2)c(C#N)c(=O)[nH]1)C1CCCCC1; label 1
COc1ccc(-n2c(C)ccc2-c2ccccc2)cn1; label 0

# lookup: test call for CCN(CC)CCNC(=O)c1cc2cc(Br)ccc2s1
label 0

I would be grateful if you could indicate the recorded call for CCn1nc([N+](=O)[O-])c(C(C#N)c2nc3cc(C(F)(F)F)ccc3s2)c(Cl)c1=O (stereo unspecified) .
label 1

// outcome(item) with item = COC1=C(c2ccccc2)C(=O)c2ccccc2C1=O
label 0
